Cited source: ChEMBL document CHEMBL1955837

EXPERIMENTAL_TARGET: Nitric oxide sythases; iNOS & nNOS (Homo sapiens) (UniProt P29475+P35228)
Sequence (P35228 whole entry, looked up, one chain of several): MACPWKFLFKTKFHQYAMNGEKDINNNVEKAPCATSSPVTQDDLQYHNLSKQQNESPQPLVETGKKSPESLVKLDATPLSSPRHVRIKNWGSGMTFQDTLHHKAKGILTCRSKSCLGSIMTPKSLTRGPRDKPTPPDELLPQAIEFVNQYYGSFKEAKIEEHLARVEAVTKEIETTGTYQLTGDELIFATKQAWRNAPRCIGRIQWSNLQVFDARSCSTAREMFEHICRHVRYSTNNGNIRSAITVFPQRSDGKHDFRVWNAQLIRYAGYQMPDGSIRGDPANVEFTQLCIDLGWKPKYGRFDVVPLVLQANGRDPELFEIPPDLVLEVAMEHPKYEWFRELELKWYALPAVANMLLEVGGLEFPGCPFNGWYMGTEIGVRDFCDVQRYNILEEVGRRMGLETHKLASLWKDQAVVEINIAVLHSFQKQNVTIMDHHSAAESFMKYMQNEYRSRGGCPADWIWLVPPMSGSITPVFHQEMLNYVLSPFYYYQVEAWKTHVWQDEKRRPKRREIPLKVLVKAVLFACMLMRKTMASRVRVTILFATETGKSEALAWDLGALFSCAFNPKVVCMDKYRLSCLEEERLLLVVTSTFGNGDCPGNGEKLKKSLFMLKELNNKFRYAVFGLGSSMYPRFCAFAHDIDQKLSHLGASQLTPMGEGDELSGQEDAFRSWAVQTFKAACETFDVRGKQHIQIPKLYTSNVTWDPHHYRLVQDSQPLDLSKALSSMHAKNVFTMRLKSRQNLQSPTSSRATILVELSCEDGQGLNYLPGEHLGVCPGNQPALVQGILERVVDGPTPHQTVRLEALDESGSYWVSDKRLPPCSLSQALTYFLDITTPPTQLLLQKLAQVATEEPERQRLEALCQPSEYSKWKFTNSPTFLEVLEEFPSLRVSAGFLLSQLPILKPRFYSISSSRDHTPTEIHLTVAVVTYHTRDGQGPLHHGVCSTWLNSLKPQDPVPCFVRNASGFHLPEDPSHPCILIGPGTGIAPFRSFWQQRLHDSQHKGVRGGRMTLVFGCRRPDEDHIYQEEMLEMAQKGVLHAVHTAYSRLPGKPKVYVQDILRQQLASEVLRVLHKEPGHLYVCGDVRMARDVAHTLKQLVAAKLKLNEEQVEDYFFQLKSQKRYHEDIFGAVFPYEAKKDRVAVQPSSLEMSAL
MEASUREMENT_NOTES: Selectivity ratio of IC50 for human recombinant iNOS to IC50 for human recombinant nNOS
REPORTED_ENDPOINT: Ratio IC50

Worked cases, answers included:
{"COMPOUND": "N=C(Nc1ccc2c(c1)N(C1CCSCC1)CC2)c1cccs1", "Ratio IC50": 0.5}
{"COMPOUND": "N=C(Nc1ccc2c(c1)N(C1CCNC1)CC2)c1cccs1 (racemic)", "Ratio IC50": 50}
{"COMPOUND": "N=C(Nc1ccc2c(c1)N(C1CCNCC1)CC2)c1cccs1", "Ratio IC50": 4}
{"COMPOUND": "N=C(Nc1ccc2c(c1)N(CCNCCO)CC2)c1cccs1", "Ratio IC50": 49}
{"COMPOUND": "N=C(Nc1ccc2c(c1)N(CCN1CC[C@@H](O)C1)CC2)c1cccs1", "Ratio IC50": 62}
{"COMPOUND": "CN[C@H]1CC[C@H](N2CCc3cc(F)c(NC(=N)c4cccs4)cc32)CC1", "Ratio IC50": 91}

1 = N=C(Nc1cc2c(cc1F)CCN2C1CCNCC1)c1cccs1
2 = CN[C@H]1CC[C@@H](N2CCc3cc(F)c(NC(=N)c4cccs4)cc32)CC1
Choose between 1 and 2 : whose measured Ratio IC50 value is numerically larger? // return label of chosen record
2
(2: 154, 1: 26)

* * *

EXPERIMENTAL_TARGET: Nitric oxide synthase 1 (Homo sapiens, UniProt P29475)
Sequence (P29475 whole entry): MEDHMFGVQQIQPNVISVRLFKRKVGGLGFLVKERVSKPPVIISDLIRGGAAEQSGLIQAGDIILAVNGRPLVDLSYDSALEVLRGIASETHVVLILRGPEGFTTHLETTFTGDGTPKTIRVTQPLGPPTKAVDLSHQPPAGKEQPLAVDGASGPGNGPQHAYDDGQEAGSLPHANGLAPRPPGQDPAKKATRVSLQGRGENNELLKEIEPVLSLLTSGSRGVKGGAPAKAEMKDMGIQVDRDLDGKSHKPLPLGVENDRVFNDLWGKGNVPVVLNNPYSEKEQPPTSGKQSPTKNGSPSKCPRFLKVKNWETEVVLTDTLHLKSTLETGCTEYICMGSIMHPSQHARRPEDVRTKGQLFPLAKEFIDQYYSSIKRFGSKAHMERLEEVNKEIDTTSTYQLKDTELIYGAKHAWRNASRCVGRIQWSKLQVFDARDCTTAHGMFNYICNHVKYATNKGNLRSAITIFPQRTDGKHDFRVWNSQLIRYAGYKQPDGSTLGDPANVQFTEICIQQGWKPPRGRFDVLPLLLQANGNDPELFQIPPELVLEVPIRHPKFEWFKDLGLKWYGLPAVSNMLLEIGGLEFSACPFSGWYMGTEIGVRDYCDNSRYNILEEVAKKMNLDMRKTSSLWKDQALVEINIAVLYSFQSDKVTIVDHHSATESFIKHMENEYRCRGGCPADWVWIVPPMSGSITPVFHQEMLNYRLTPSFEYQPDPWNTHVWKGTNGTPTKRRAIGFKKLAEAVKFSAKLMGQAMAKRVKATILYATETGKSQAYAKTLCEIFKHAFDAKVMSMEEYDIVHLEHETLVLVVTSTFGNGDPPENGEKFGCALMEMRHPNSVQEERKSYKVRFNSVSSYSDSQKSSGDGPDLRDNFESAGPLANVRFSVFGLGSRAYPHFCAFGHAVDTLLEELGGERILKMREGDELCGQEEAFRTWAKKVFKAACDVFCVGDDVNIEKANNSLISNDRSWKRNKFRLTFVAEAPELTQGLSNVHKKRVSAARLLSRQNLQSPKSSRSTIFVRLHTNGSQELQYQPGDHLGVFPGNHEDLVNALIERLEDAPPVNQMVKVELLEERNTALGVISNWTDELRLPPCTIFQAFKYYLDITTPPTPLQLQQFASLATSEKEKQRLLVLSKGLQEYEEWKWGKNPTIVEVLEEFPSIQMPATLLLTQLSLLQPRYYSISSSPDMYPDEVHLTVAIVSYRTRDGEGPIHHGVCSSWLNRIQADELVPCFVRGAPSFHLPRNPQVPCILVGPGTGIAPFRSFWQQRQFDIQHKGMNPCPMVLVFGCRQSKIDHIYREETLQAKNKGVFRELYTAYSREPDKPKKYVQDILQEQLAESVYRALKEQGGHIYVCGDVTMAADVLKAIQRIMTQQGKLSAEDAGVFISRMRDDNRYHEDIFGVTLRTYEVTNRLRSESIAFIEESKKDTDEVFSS
MEASUREMENT_NOTES: Inhibition of human recombinant nNOS expressed in baculovirus infected insect Sf9 cells assessed as conversion of [3H]L-arginine to [3H]L-citrulline incubated for 15 mins prior to substrate addition measured after 45 mins by liquid scintillation counting
REPORTED_ENDPOINT: IC50 (µM)

Worked cases, answers included:
{"MOLECULE": "N=C(Nc1ccc2c(c1)N(C1CCNC1)CC2)c1cccs1 (racemic)", "EXPERIMENTAL_TARGET": "Nitric oxide synthase 1 (Homo sapiens, UniProt P29475)", "REPORTED_ENDPOINT": "IC50", "RECORDED_MEASUREMENT": 0.18}
{"MOLECULE": "NC(=Nc1ccc2c(c1)N(CCN1CC[C@@H](O)C1)CC2)c1cccs1", "EXPERIMENTAL_TARGET": "Nitric oxide synthase 1 (Homo sapiens, UniProt P29475)", "REPORTED_ENDPOINT": "IC50", "RECORDED_MEASUREMENT": 0.11}
{"MOLECULE": "N=C(Nc1cc2c(cc1F)CCN2C1CCNCC1)c1cccs1", "EXPERIMENTAL_TARGET": "Nitric oxide synthase 1 (Homo sapiens, UniProt P29475)", "REPORTED_ENDPOINT": "IC50", "RECORDED_MEASUREMENT": 18.8}
{"MOLECULE": "NC(=Nc1ccc2c(c1)N(C1CCSCC1)CC2)c1cccs1", "EXPERIMENTAL_TARGET": "Nitric oxide synthase 1 (Homo sapiens, UniProt P29475)", "REPORTED_ENDPOINT": "IC50", "RECORDED_MEASUREMENT": 2.07}
{"MOLECULE": "CN[C@H]1CC[C@@H](N2CCc3cc(F)c(NC(=N)c4cccs4)cc32)CC1", "EXPERIMENTAL_TARGET": "Nitric oxide synthase 1 (Homo sapiens, UniProt P29475)", "REPORTED_ENDPOINT": "IC50", "RECORDED_MEASUREMENT": 5.82}
{"MOLECULE": "NC(=Nc1ccc2c(c1)N(CCNCCO)CC2)c1cccs1", "EXPERIMENTAL_TARGET": "Nitric oxide synthase 1 (Homo sapiens, UniProt P29475)", "REPORTED_ENDPOINT": "IC50", "RECORDED_MEASUREMENT": 0.07}
{"MOLECULE": "CN[C@H]1CC[C@H](N2CCc3cc(F)c(NC(=N)c4cccs4)cc32)CC1", "EXPERIMENTAL_TARGET": "Nitric oxide synthase 1 (Homo sapiens, UniProt P29475)", "REPORTED_ENDPOINT": "IC50", "RECORDED_MEASUREMENT": 5.75}

a = NC(=Nc1ccc2c(c1)N(C1CCCCC1)CC2)c1cccs1
b = CN[C@H]1CC[C@H](N2CCc3ccc(NC(=N)c4cccs4)cc32)CC1
c = NC(=Nc1ccc2c(c1)N(C1CCNCC1)CC2)c1cccs1
d = CN[C@H]1CC[C@@H](N2CCc3ccc(NC(=N)c4cccs4)cc32)CC1
Kindly order the items shown according to IC50, from the highest value down. Write the labels, ordered according to the request.
a, b, c, d
(a: 4.07 µM, b: 2.12 µM, c: 0.54 µM, d: 0.37 µM)
